Reference for the values: patent US8940742B2

- experimental-target: PI3K γ (Homo sapiens, UniProt P48736)
- Sequence (P48736 whole entry): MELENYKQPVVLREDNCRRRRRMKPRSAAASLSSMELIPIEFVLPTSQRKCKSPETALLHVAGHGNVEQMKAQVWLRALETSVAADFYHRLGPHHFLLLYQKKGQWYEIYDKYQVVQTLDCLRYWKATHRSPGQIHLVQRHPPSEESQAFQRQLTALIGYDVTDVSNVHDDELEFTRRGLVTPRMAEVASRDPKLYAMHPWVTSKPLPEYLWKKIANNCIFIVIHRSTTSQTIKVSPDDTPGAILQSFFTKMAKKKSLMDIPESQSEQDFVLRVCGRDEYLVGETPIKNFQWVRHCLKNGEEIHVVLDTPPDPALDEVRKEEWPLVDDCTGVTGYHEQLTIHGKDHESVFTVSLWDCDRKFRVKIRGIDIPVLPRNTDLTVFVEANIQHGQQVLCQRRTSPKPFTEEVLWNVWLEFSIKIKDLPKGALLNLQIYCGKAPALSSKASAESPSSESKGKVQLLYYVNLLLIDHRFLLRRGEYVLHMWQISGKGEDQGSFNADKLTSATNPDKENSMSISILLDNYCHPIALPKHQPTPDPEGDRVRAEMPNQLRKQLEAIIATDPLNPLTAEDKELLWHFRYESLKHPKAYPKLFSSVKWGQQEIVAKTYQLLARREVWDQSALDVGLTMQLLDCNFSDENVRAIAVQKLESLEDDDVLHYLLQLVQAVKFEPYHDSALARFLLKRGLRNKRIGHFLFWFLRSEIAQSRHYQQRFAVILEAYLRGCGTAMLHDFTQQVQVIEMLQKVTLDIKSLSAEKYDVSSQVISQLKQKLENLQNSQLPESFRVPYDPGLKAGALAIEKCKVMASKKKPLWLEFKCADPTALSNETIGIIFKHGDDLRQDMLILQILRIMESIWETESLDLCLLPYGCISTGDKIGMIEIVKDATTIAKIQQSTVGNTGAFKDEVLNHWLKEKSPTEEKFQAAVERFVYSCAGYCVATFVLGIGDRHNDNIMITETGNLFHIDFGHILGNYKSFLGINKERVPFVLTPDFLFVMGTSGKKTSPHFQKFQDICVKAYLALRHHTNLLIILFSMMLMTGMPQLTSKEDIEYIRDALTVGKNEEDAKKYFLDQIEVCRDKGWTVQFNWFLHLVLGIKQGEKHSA
pIC50: −log10 of the molar value.
quantity-measured: pIC50

// query Need pIC50, item Cc1cnc(C(=O)N[C@@H](C)c2cc3cccc(C(F)(F)F)c3c(=O)n2-c2ccccc2)c(N)n1 [Compound 80]
// result 5.00 to 6.00

// query Need pIC50, item C[C@H](NC(=O)c1nc(-c2cccc(O)c2)cnc1N)c1cc2cccc(Cl)c2c(=O)n1-c1ccccc1 [Compound 104]
// result 5.00 to 6.00

// query Need pIC50, item C=CC(=O)NCCC#Cc1cccc2cc([C@H](C)NC(=O)c3c(N)nn4cccnc34)n(-c3ccccc3)c(=O)c12 [Compound 160]
// result 6.00 to 7.00

// query Need pIC50, item CC(=O)NCC#Cc1cccc2cc([C@H](C)NC(=O)c3c(N)nn4cccnc34)n(-c3ccccc3)c(=O)c12 [Compound 165]
// result > 7.00

// query Need pIC50, item CC(C)c1ccnc2c(C(=O)N[C@@H](C)c3cc4cccc(Cl)c4c(=O)n3-c3ccccc3)c(N)nn12 [Compound 177]
// result < 5.00

// query Need pIC50, item C[C@H](NC(=O)c1c(N)oc2cccnc12)c1cc2cccc(Cl)c2c(=O)n1-c1ccccc1 [Compound 298]
// result 5.00 to 6.00

// query Need pIC50, item COc1cccc(-c2cnc(N)c(C(=O)N[C@@H](C)c3cc4cccc(Cl)c4c(=O)n3-c3ccccc3)n2)c1 [Compound 105]
// result < 5.00
